Stated conditions: cynomolgus monkey, in vivo, iv, 2 mg/kg
Description: The pharmacokinetic profile of the constructs was analyzed in male cynomolgus monkeys of approximately 3 to 4 years old and was compared to the reference (SEQ ID NO:165). […] Standards, QC samples and diluted test samples were transferred onto the coated plate and incubated for 1 hour at RT. […] Plates were washed and Nanobody/vWF complexes bound to the capture tool detected with Rabbit anti-human vWF Ab (Dako, Denmark), diluted 1/2000 in PBS/0.1% casein and incubated for 30 minutes at RT. […]
Readout type: AUCinf (µg·h/mL)
Report as a plain number; the unit µg·h/mL is understood.

# return recorded AUCinf for entry 12A2_sv1-AAA-12A2_sv1-9GS-59C2-9GS-59C2 (protein) DVQLVESGGGLVQPGGSLRLSCAASGRTFSYNPMGWFRQAPGKGRELVAAISRTGGSTYYPESVEGRFTISRDNAKRTVYLQMNSLRAEDTAVYYCAAAGVRAEQGRVRTLPSEYTFWGQGTQVTVSSAAAEVQLVESGGGLVQPGGSLRLSCAASGRTFSYNPMGWFRQAPGKGRELVAAISRTGGSTYYPESVEGRFTISRDNAKRTVYLQMNSLRAEDTAVYYCAAAGVRAEQGRVRTLPSEYTFWGQGTQVTVSSGGGGSGGGSRDWDFDVFGGGTPVGGGGGGSGGGSRDWDFDVFGGGTPVGG
4140
